measuredOn: recombinant rat GABAA receptor α2β3γ2 (Rattus norvegicus, UniProt P18508+P23576)
Construct: expressed in transfected cells; host or cells: HEK-293
Sequence (P23576 29-451): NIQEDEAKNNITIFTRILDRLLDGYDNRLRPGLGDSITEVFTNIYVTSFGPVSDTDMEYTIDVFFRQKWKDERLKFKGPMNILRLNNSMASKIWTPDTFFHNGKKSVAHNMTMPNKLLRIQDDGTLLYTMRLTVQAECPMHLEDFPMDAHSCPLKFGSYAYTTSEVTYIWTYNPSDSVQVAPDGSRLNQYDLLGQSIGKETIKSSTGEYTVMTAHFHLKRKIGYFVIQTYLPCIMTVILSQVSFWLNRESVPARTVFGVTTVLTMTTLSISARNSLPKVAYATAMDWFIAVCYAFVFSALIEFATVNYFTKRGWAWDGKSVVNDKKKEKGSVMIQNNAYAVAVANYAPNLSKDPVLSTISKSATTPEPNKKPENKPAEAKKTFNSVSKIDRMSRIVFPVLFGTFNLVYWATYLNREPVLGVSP
Sequence (P63079 26-473 partner): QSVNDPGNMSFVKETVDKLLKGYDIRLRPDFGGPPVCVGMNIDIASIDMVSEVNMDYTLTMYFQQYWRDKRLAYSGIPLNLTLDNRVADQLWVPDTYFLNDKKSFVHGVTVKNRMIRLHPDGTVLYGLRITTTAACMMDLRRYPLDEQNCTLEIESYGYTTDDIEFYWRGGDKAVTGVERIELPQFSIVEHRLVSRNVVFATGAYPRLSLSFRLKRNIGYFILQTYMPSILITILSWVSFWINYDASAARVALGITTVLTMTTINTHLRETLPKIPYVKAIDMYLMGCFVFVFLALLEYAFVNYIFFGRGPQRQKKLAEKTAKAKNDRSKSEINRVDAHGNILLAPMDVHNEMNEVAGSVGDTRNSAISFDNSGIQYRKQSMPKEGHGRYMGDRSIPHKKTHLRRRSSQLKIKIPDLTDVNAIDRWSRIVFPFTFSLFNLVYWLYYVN
Sequence (P18508 39-466): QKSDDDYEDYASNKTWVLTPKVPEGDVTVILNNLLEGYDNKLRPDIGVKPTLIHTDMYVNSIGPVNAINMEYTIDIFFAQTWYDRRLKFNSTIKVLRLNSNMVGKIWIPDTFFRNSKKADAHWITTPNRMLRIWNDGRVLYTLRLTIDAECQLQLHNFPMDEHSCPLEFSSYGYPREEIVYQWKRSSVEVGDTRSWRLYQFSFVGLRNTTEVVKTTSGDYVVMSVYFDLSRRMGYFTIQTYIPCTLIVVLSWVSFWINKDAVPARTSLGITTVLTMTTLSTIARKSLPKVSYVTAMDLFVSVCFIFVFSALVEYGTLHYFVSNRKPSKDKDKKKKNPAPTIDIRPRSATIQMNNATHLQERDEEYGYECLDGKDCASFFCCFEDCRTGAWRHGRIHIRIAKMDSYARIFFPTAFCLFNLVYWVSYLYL
experimentSummary: [3H]flunitrazepam radioligand displacement, α2β3γ2
Assay type: binding
settings: 2 nM [3H]flunitrazepam, HEK-293 membranes
assayMetric: displacement of [3H]flunitrazepam at α2β3γ2 (in words)

[
  {
    "cpdSmiles": "C#Cc1ccc2c(c1)C(c1ccccc1)=N[C@H](C)c1nnc(C)n1-2",
    "endpointResult": "inactive"
  },
  {
    "cpdSmiles": "C[C@H]1N=C(c2ccccc2)c2cc(Br)ccc2NC1=O",
    "endpointResult": "inactive"
  }
]
